test system: Plasmodium berghei (Pb-Luc) exoerythrocytic-stage parasites; test: microbe, parasite or virus in culture; conditions: read-out: Inhibition% @ 50 uM rep2
Measure: inhibition at 50 µM

> print(dat)
                                    molecule  meas.value
 1  CCCCCCC(O)(c1ccc(F)cc1)C(CN1CCOCC1)c1ccccc1 (stereo not drawn)        103%
 2  COc1cccc(C2(C)Nc3ccccc3-c3nc4ccccc4n32)c1 (stereo not drawn)        106%
 3  COc1ccc(-c2nc(NC(=O)CS(=O)(=O)c3ccc(F)cc3)sc2C)cc1        100%
 4  COc1cccc(-c2nn(C)c3sc(C(=O)NCCN4CCN(c5ccccc5F)CC4)cc23)c1        104%
 5  CCOC(=O)c1cn(CC)c2cc(N(C)CCc3ccc(OC)c(OC)c3)c(F)cc2c1=O        106%
 6       COc1cccc(C=Cc2nc(=O)c3ccccc3o2)c1OC        103%
 7  OC1=C2C(=Nc3ccccc3SC2c2ccc(Br)cc2)c2ccccc21 (stereo not drawn)        103%
 8           Oc1ccc(Cl)cc1CNc1nc2ccccc2[nH]1        104%
 9  CCCCCC(=O)N1c2ccccc2N=C2CC(c3ccc(OC)c(OC)c3)CC(O)=C2C1c1ccc(C(F)(F)F)cc1 (stereo not drawn)         90%
10  COc1cccc(C(=O)Nc2ccc(-c3nc4ccccc4[nH]3)cc2)c1        -91%
11      CCCCNCC(O)(c1ccc(Cl)cc1)c1ccc(Cl)cc1        105%
12  COc1cc(OC)cc(N2C(=O)N(Cc3ccc(C(C)(C)C)cc3)c3ccccc3S2(=O)=O)c1         88%
13  COc1ccc(C(=O)NC(c2ccccc2Cl)c2cc(Cl)c3cccnc3c2O)cc1 (stereo not drawn)        104%
14  Cc1cc(C)c2nc(N3CCC(C(=O)NCCCN4CCC(N5CCCCC5)CC4)CC3)sc2c1        101%
15  CCOC(=O)c1c(C)n(-c2ccc(Cl)cc2)c2ccc(OC(=O)C=Cc3ccccc3)cc12        104%
16  CCOc1cc(Br)c(C(C)NC(=O)c2cccc(OC)c2)cc1OCC (stereo not drawn)        104%
17       Cc1cc(Nc2cccc(F)c2)nc(NCc2ccccc2)n1        106%
18  CCN(CC)c1cc(C)c2cc(NC(=O)c3cccc(OC)c3)ccc2n1        106%

* * *

Readings of inhibition at 50 µM for the listed compounds
system: Plasmodium berghei (Pb-Luc) exoerythrocytic-stage parasites; experiment: microbe, parasite or virus in culture; conditions: read-out: Inhibition% @ 50 uM rep2
Measure: inhibition at 50 µM (%)

> print(dat)
                                    compound              measure  endpoint.unit  meas.value
 1  CCOC(=O)c1cnc2c(C)cc(C)cc2c1Nc1ccc(OC)c(OC)c1  inhibition at 50 µM              %           0
 2         COc1ccc2c(=O)cc(C(Cl)(Cl)Cl)oc2c1  inhibition at 50 µM              %         102
 3  CCN(CC)CCCNc1nc(-c2ccc(Cl)cc2)nc2ccccc12  inhibition at 50 µM              %         103
 4  O=C(NC1CCN(Cc2ccccc2)CC1)c1cc(-c2cccnc2)nc2ccc(Cl)cc12  inhibition at 50 µM              %          91
 5  CC(C)(C)c1ccc(C2CC3=Nc4ccccc4N(C(=O)c4ccccc4Cl)C(c4ccc(F)cc4)C3=C(O)C2)cc1 (stereo not drawn)  inhibition at 50 µM              %          94
 6  COc1ccc(N2CCN(C(CNC(=O)C3CCCCC3)c3ccc4c(c3)OCO4)CC2)cc1 (stereo not drawn)  inhibition at 50 µM              %          94
 7  COc1ccc(-n2ccnc2SCC(=O)Nc2cc(C)ccc2C)c(OC)c1  inhibition at 50 µM              %         102
 8  CCOC(=O)C1=CN(C)C=C(C(=O)OCC)C1c1cc(Br)c(OCC)c(OC)c1  inhibition at 50 µM              %         103
 9  Cc1cc(N(C)C)nc(Nc2ccc(NC(=O)Nc3ccccc3)cc2)n1  inhibition at 50 µM              %          99
10         Oc1c2c(nc3cc(-c4ccccc4)nn13)CCCC2  inhibition at 50 µM              %         104
11  CCN(CC)S(=O)(=O)c1ccc(-c2csc(Nc3ccc(C)c(C)c3)n2)cc1  inhibition at 50 µM              %          96
12  CCC(O)c1ccc(Br)cc1NC(=O)c1cccc(Cl)c1 (stereo not drawn)  inhibition at 50 µM              %         106
13  COc1ccc(-c2cn3c(C(=O)Nc4ccccc4Cl)c(-c4ccccc4)c4c3n2CCCC4)cc1  inhibition at 50 µM              %         103
14  Cc1ccc(CN2CCC(C(=O)Nc3ccc(-c4cc5ccccc5[nH]4)cc3)CC2)o1  inhibition at 50 µM              %          96
15  CC1=C(CC(=O)c2cccc([N+](=O)[O-])c2)C(=O)c2ccccc2C1=O  inhibition at 50 µM              %         104
16  Brc1ccc(Nc2nc3ccccc3nc2Nc2ccc(Br)cc2)cc1  inhibition at 50 µM              %         103
17  CCOc1cc2c(cc1OCC)C(c1cc(Cl)ccc1O)NCC2 (stereo not drawn)  inhibition at 50 µM              %         104
18       CCCCNc1nc(NC(C)(C)C)nc(NC(C)(C)C)n1  inhibition at 50 µM              %          94
